Can you tell me vesicle binding response for the items I'm about to list?
Test: inhibitors of CD8+ T cell-vesicle binding, pilot screen, LFA-1/ICAM-1 modulator project, MLPCN validation set, flow cytometry (AID 2523);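 note: mean PE anti-B7-1 fluorescence of CD8+ cells relative to row control; 100% = QL9-loaded vesicles with DMSO vehicle in the same plate row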
Details: 2C mouse CD8+ T cells, at 7 µM, hits give low values
Express your answer in %, writing the number without its unit.

Req: Write down vesicle binding response measured for item COc1ccc(C=NCC2COc3ccccc3O2)cc1OC (configuration not stated)
Resp: 187

Req: Write down vesicle binding response measured for item O=C(O)c1cc(-c2ccccc2)nc2ccccc12
Resp: 151

Req: Write down vesicle binding response measured for item CC1=CC2(O)OCCN(CCO)C2=CC1=O (configuration not stated)
Resp: 162

Req: Write down vesicle binding response measured for item CC(=O)OCC(=O)C1=CCC2C3CCC4=CC(=O)C=CC4(C)C3(F)C(OC(C)=O)CC12C (configuration not stated)
Resp: 180

Req: Write down vesicle binding response measured for item Cc1ccc(C(CC(=O)NCc2ccco2)c2ccc(OC(C)C)cc2)cc1 (configuration not stated)
Resp: 165

Req: Write down vesicle binding response measured for item O=C(/C=C/c1ccccc1)/C=C/c1ccccc1
Resp: 434

Req: Write down vesicle binding response measured for item Cc1ccc2c(CN3CCN(Cc4ccc5c(c4)OCO5)CC3)cc(=O)oc2c1C
Resp: 88.4

Req: Write down vesicle binding response measured for item O=C(O)CCSc1nc2ccccc2s1
Resp: 183

Req: Write down vesicle binding response measured for item CCOC(=O)c1ccccc1NC(=O)c1ccc(F)cc1
Resp: 102

Req: Write down vesicle binding response measured for item Cc1ccccc1OCC(O)CN1CCN(C)CC1 (configuration not stated)
Resp: 193

Req: Write down vesicle binding response measured for item O=C(O)c1cc(-c2ccc3c(c2)OCO3)nc2ccc(Br)cc12
Resp: 182

Req: Write down vesicle binding response measured for item CCCC(=O)Nc1ccc(OCC(O)CNC(C)C)c(C(C)=O)c1 (configuration not stated)
Resp: 2400
